study_system: Glycoprotein VI extracellular domain (Gln21-Lys267) (Homo sapiens)
Sequence: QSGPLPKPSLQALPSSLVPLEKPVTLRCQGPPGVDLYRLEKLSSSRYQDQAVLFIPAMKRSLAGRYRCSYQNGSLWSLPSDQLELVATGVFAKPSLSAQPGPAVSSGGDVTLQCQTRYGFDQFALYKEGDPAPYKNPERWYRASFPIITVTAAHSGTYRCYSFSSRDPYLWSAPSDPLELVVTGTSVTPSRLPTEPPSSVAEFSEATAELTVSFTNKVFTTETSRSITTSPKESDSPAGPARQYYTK
protocol_text: filter
condition_notes: RB526 pattern; hexaethylene glycol spacer between G11 and C12; 3' idT
measured_endpoint: Kd

Request: // query Kd value for entry GGAGGACGGCGCGCCUGGCAUAAGCCUCC [RB537]
Response: < 0.01 µM
